This collection of values is drawn from PubChem BioAssay AID624167.

- SYSTEM: UniProtKB Q6IN02
- ASSAY_OVERVIEW: Peg3 promoter luciferase inhibitors, potency, dose response, cell-based, HeLa, CREF/GAPDH counter-screen panel (AID 624167)
- ASSAY_CONTEXT: HeLa PEG-Prom luciferase reporter, overnight, CREF/GAPDH counter-screens, mean of runs
Calls of active or inactive are those of the source.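 The calls were made as follows: active = mean IC50 for reducing PEG3 promoter reporter signal at or below a set limit, with IC50 above the limit in both counter screens; inactive = the rest, including counter screen hits.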
EXPERIMENTAL_ENDPOINT: IC50

{"COMPOUND": "O=c1c2ccccc2oc2cc(C#CC3(O)CCCCC3)ccc12", "OBSERVED_VALUE": "inactive"}
{"COMPOUND": "Cn1cc(CN2CCCC(C(=O)Nc3ccc(-c4cccc(F)c4)cc3)C2)cn1 (stereo unspecified)", "OBSERVED_VALUE": "inactive"}
{"COMPOUND": "CNCC[C@@H](Oc1ccc(C(F)(F)F)cc1)c1ccccc1", "OBSERVED_VALUE": "inactive"}
{"COMPOUND": "COc1cc(/C=N/O)ccc1OCc1ccc(C(=O)O)cc1", "OBSERVED_VALUE": "1610 nM"}
{"COMPOUND": "COc1cc2nc(CN3CC=C(c4ccccc4)CC3)[nH]c(=O)c2cc1OC", "OBSERVED_VALUE": "6470 nM"}

Turning now to a further record.
What the record says about OCCCNc1nccc(-c2cc(Nc3cccc(Cl)c3)ncn2)n1 : IC50 is 497 nM

====

- Tested on: Rat fibroblasts (CREF)
- ASSAY_OVERVIEW: Peg3 promoter luciferase inhibitors, potency, dose response, cell-based, HeLa, CREF/GAPDH counter-screen panel (AID 624167)
- ASSAY_CONTEXT: CREF/GAPDH counter-screens, run 1, dose range 1, individual replicate IC50 per panel
Reported log10 of IC50 by item:
Heads up: the numbers are on a log10 scale; they represent IC50 in µM.

{"COMPOUND": "CC(=O)N1CCCC(c2cc(C(=O)Nc3ccccc3)no2)C1 (stereo unspecified)", "log10 of IC50": 0.97}

Measured log10 of IC50 for this entry CCOC(=O)c1c(-n2c(C)cc(C=C3C(=O)NC(=S)NC3=O)c2C)sc2c1CCCC2 on Rat fibroblasts (CREF): 1.31

Measured log10 of IC50 for this entry CC1CCN(c2ccc(-c3cccs3)nn2)CC1 on Rat fibroblasts (CREF): -0.50

====

- SYSTEM: PEG-3 (UniProt Q6IN02)
- Sequence (Q6IN02 whole entry, looked up): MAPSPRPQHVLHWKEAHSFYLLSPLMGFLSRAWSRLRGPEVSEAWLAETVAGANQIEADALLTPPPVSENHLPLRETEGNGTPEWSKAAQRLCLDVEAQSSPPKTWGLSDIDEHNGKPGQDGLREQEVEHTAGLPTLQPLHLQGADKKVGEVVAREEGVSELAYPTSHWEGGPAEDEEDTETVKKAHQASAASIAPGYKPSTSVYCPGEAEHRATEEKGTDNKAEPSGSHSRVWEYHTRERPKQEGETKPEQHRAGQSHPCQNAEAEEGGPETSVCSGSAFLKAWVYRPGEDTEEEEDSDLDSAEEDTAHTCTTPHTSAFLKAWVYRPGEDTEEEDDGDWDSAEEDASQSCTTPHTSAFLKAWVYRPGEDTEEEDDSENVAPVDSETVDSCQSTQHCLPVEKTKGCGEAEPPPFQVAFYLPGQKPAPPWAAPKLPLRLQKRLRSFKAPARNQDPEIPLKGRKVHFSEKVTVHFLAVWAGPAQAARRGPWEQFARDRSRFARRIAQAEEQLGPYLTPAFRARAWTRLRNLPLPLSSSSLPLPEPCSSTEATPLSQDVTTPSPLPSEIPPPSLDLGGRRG
- ASSAY_OVERVIEW: Peg3 promoter luciferase inhibitors, potency, dose response, cell-based, HeLa, CREF/GAPDH counter-screen panel (AID 624167)
- ASSAY_CONTEXT: HeLa PEG-Prom luciferase reporter, overnight, CREF/GAPDH counter-screens, mean of runs
Activity calls are given as the source filed them.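 The calls were made as follows: active = mean IC50 for reducing PEG3 promoter reporter signal at or below a set limit, with IC50 above the limit in both counter screens; inactive = the rest, including counter screen hits.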
Answer with one of the outcomes class 1 for active, class 0 for inactive

Field: example entries. Status: answers known.
{"SMILES_DATA": "CC[n+]1c(-c2ccccc2)c2cc(N)ccc2c2ccc(N)cc21", "SYSTEM": "PEG-3 (UniProt Q6IN02)", "LABEL_VALUE": "class 1"}
{"SMILES_DATA": "COCCn1c(C)cc(C(=O)COC(=O)c2ccccc2Br)c1C", "SYSTEM": "PEG-3 (UniProt Q6IN02)", "LABEL_VALUE": "class 0"}
{"SMILES_DATA": "CCOc1cc(CNCCCN2CCOCC2)ccc1OCC(=O)Nc1cccc2ccccc12", "SYSTEM": "PEG-3 (UniProt Q6IN02)", "LABEL_VALUE": "class 1"}
{"SMILES_DATA": "CCN1CCN(CCNC(=O)c2ccc(/C=C3\\Sc4ccccc4N(Cc4ccccc4F)C3=O)cc2)CC1", "SYSTEM": "PEG-3 (UniProt Q6IN02)", "LABEL_VALUE": "class 1"}
{"SMILES_DATA": "O=C(NCCc1ccccc1F)c1ccc2c(c1)OCCO2", "SYSTEM": "PEG-3 (UniProt Q6IN02)", "LABEL_VALUE": "class 1"}

# input // param item: COc1ccc(CCNC(=O)c2cc3c(=O)n4ccccc4nc3n(C3CCCCC3)c2=N)cc1 ; yields the recorded call
# output class 0
